- Tested on: OVCAR-4
- ASSAY_OVERVIEW: Anticancer activity against human OVCAR4 cells assessed as cell growth at 10 uM after 48 hrs by sulforhodamine B assay relative to control
- Type: functional
- CONDITION_CONTEXT: OVCAR-4, 48 h, read-out: Activity
Please go through the items and note down their growth at 10 µM.
# value in %; strip the unit string

Give me measured growth at 10 µM, please, for this compound: C=C1CC[C@@H]2[C@](C)(COC(C)=O)[C@H](OC(C)=O)CC[C@@]2(C)[C@H]1CC(Nc1ccc(S(=O)(=O)Nc2nccs2)cc1)C1=CCOC1=O (stereo partly drawn)
38

Give me measured growth at 10 µM, please, for this compound: C=C1CC[C@@H]2[C@](C)(COC(C)=O)[C@H](OC(C)=O)CC[C@@]2(C)[C@H]1CC(Nc1ccc(S(=O)(=O)Nc2cc(C)on2)cc1)C1=CCOC1=O (stereo partly drawn)
68.2

Give me measured growth at 10 µM, please, for this compound: C=C1CC[C@@H]2[C@](C)(COC(C)=O)[C@H](OC(C)=O)CC[C@@]2(C)[C@H]1CC(Nc1ccc(S(=O)(=O)Nc2ncccn2)cc1)C1=CCOC1=O (stereo partly drawn)
42.7
